Documented IC50 across a set of binders
- TGT: T1, FGF-5 (fibroblast growth factor 5) (UniProt P12034 18-268, limits assumed)
- T1 sequence (looked up): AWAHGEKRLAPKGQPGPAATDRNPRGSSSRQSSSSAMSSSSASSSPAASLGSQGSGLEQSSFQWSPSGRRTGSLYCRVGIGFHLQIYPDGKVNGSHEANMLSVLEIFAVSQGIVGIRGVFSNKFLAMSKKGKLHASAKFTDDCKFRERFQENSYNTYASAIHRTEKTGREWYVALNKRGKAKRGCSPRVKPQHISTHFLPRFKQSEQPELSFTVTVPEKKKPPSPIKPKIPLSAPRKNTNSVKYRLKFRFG
- PROTOCOL SUMMARY: BioVeris ECL competition assay with a labeled competitor; legend: ++ = IC50 about 10 - 50 µM

# BINDER, IC50
data = [
    ("FGFps2-Q-BBIt-FGF-5 (BBIt-A13I-L29P-F50T-V52A with the FGF-5 binding peptide FGFps2 TWIDSTP) (designed binder, also called BBIt-FGFps2-Q-A13I-L29P-F50T-V52A) DPDDESSKPCCDQCICTKSNPPQCRCSDMRPNSCHSACKSCACTWIDSTPCTCADITDFCYEPCKPSE", "10 to 50 µM"),
]

Given item MM007-Q-BBIt-FGF-5 (BBIt-A13I-L29P-F50T-V52A with the FGF-5 binding peptide MM007 RTQPYPL) (designed binder, also called BBIt-MM007-Q-A13I-L29P-F50T-V52A) DPDDESSKPCCDQCICTKSNPPQCRCSDMRPNSCHSACKSCACRTQPYPLCTCADITDFCYEPCKPSE , the value recorded as its IC50 is 10 to 50 µM
